# Assayed target: T1, hPRLR.mmh (soluble monomeric human PRLR) (human)
# T1 construct: called soluble monomeric PRLR protein
# T1 chain: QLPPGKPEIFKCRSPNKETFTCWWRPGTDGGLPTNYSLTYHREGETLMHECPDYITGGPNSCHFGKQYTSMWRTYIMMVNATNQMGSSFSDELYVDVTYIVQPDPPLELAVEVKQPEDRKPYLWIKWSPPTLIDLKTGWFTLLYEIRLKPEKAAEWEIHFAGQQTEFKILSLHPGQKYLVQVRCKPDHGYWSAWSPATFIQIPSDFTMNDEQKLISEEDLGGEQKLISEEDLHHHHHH
# Experiment description: SPR Biacore, 25 C, mAb capture
Here, each record is paired with measured kon data.
Outcome measure: kon (M⁻¹ s⁻¹)

binder="H1H6958N2 (antibody, human IgG1, V domains shown, Tested with human IgG1 Fc (H1H); also called H2M6958N2) VH: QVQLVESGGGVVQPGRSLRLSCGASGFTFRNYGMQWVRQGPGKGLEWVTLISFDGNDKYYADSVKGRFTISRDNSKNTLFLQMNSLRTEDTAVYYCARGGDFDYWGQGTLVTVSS VL: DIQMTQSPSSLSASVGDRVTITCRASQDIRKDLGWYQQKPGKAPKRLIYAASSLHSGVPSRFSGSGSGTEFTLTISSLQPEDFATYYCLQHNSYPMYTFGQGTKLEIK" outcome_measure=kon endpoint_value=233000
binder="H1H6782P (antibody, human IgG1, V domains shown, Human IgG1 Fc (H1H)) VH: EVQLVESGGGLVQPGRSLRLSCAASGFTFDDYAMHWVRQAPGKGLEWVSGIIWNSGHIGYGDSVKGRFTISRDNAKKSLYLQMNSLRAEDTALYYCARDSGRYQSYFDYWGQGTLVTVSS VL: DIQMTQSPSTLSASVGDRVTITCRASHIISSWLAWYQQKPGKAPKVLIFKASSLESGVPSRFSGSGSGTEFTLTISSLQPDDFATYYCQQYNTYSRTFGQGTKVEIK" outcome_measure=kon endpoint_value=360000
